Target: recombinant human AChE (Homo sapiens)
Sequence (P22303 32-614): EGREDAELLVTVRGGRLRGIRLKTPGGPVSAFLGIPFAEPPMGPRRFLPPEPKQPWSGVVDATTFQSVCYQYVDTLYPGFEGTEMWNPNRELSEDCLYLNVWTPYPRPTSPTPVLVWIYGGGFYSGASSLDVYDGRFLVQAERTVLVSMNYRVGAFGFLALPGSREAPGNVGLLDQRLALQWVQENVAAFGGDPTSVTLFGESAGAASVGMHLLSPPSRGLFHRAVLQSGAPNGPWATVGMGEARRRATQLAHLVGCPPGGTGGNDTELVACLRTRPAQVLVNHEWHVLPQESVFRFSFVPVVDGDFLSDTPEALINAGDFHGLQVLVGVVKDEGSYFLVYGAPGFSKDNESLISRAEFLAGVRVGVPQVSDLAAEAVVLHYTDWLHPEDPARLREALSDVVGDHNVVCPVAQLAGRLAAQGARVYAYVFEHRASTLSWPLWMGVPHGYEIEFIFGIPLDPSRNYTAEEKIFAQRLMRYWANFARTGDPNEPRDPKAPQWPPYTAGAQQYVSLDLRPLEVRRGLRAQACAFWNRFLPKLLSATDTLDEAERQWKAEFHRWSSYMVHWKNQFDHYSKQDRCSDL
Test: biochemical
Type: biochemical
Details: AC50 (uM)
Give AC50 for every item shown.
# number only, unit µM dropped from output

INPUT: Look up AC50 for this molecule: [H]/N=C(\N/C(=N/[H])NCCCCCCNC(=N)NC(=N)Nc1ccc(Cl)cc1)Nc1ccc(Cl)cc1 [Chlorhexidine diacetate, reference compound]
OUTPUT: 78.5

INPUT: What value of measured AC50 is listed for CCCCSP(=O)(SCCCC)SCCCC [Tribufos] ?
OUTPUT: 88.5

INPUT: Returns the measured AC50 for the input molecule. Input: CCOP(=O)(OCC)Oc1cc(C)nc(C(C)C)n1 [Diazoxon]
OUTPUT: 44.6

INPUT: Which AC50 is listed for CCOP(=S)(OCC)OC(Cl)C(Cl)(Cl)Cl (stereo not shown) [Chlorethoxyfos] ?
OUTPUT: 1.57
